Exercise: for every item that follows, state its recorded 20 S ratio (const:immuno).
- Test system: chymotryptic-like activity of isolated 20S constitutive proteasome vs immunoproteasome
- Test name: Enzyme kinetic assay with isolated 20S proteasome preps, EC50 ratio of CT-L activity (20S ratio)
- Assay type: biochemical
- Experimental parameters: constitutive proteasome to immunoproteasome, >1 = prefers immunoproteasome

Compound	Result
COc1ccc(C[C@H](NC(=O)C(C)NC(=O)OCc2ccccc2)C(=O)N[C@@H](Cc2ccccc2)C(=O)C2(C)CO2)cc1 (stereo partly shown) [drawing 86]	>2.0
CC[C@H](C)C(NC(=O)[C@H](Cc1c[nH]c2ccccc12)NC(=O)[C@H](C)NC(=O)OCc1ccccc1)C(=O)C1(C)CO1 (stereo partly shown)	<0.5
CC(NC(=O)OCc1ccccc1)C(=O)N[C@@H](Cc1ccccc1)C(=O)N[C@@H](Cc1ccc(O)cc1)C(=O)C1(C)CO1 (stereo partly shown)	>5.0
CC(C)CC(NC(=O)OCc1ccccc1)C(=O)N[C@@H](CC(C)C)C(=O)N[C@@H](CC(C)C)C(=O)C1(C)CO1 (stereo partly shown)	<0.5
CC1(C(=O)[C@H](Cc2ccccc2)NC(=O)[C@H](Cc2c[nH]c3ccccc23)NC(=O)C(CC(=O)O)NC(=O)OCc2ccccc2)CO1 (stereo partly shown)	>3.0

Batch of 2 compounds: report 20 S ratio (const:immuno) for each.
1. C[C@H](NC(=O)OCc1ccccc1)C(=O)N[C@@H](Cc1c[nH]c2ccccc12)C(=O)N[C@H](C(=O)C1(C)CO1)c1ccccc1 (stereo partly shown)
2. CC[C@@H](NC(=O)OCc1ccccc1)C(=O)N[C@@H](Cc1c[nH]c2ccccc12)C(=O)N[C@@H](Cc1ccccc1)C(=O)C1(C)CO1 (stereo partly shown) [drawing 84]

1: >2.0; 2: >5.0

----------
Exercise: for every item that follows, state its recorded Elisa ratio (beta5:LMP7).
- System: 20S proteasome subunit β5 vs immunoproteasome subunit LMP7 in RPMI-8226 cells (Homo sapiens, UniProt P28062+P28074)
- Construct: Cells expressing approximately equivalent amounts of immuno- and constitutive proteasome (e.g., RPMI-8226) are treated with test compound; endogenous in cells; host or cells: RPMI-8226 multiple myeloma cells
- Sequence (P28074 60-263): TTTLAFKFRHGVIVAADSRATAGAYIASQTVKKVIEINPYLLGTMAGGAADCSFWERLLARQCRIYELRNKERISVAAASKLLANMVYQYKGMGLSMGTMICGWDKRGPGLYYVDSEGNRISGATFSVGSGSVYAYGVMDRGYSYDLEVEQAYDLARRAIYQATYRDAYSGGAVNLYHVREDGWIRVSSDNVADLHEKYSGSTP
- Sequence (P28062 73-276): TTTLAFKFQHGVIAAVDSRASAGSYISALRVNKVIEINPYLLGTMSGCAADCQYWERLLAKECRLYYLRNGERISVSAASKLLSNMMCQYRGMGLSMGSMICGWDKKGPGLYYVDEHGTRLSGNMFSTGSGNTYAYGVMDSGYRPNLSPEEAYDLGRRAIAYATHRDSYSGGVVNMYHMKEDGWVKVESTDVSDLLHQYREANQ
- Test name: ELISA-based active site assay in RPMI-8226 cells (ELISA ratio)
- Format: cell-based
- Experimental parameters: EC50 ratio with β5 antibody to LMP7 antibody, RPMI-8226 cells; >1 = prefers immunoproteasome

Batch of 4 compounds: report Elisa ratio (beta5:LMP7) for each.
1. Cc1ccc(C[C@H](NC(=O)[C@H](C)NC(=O)OCc2ccccc2)C(=O)N[C@@H](Cc2ccccc2)C(=O)C2(C)CO2)cc1 (stereo partly shown)
2. CC(NC(=O)OCc1ccccc1)C(=O)N[C@@H](Cc1ccc(C(F)(F)F)cc1)C(=O)N[C@@H](Cc1ccccc1)C(=O)C1(C)CO1 (stereo partly shown)
3. COc1ccc(C[C@H](NC(=O)C(C)NC(=O)OCc2ccccc2)C(=O)N[C@@H](Cc2ccccc2)C(=O)C2(C)CO2)cc1 (stereo partly shown) [drawing 86]
4. CC[C@H](C)[C@@H](NC(=O)OCc1ccccc1)C(=O)N[C@@H](Cc1ccccc1)C(=O)N[C@@H](Cc1ccccc1)C(=O)C1(C)CO1 (stereo partly shown)

1: >5.0; 2: >1.0; 3: >5.0; 4: >2.0

----------
Exercise: for every item that follows, state its recorded Elisa ratio (beta5:LMP7).
- System: 20S proteasome subunit β5 vs immunoproteasome subunit LMP7 in RPMI-8226 cells (Homo sapiens, UniProt P28062+P28074)
- Construct: Cells expressing approximately equivalent amounts of immuno- and constitutive proteasome (e.g., RPMI-8226) are treated with test compound; endogenous in cells; host or cells: RPMI-8226 multiple myeloma cells
- Test name: ELISA-based active site assay in RPMI-8226 cells (ELISA ratio)
- Format: cell-based
- Experimental parameters: EC50 ratio with β5 antibody to LMP7 antibody, RPMI-8226 cells; >1 = prefers immunoproteasome

Batch of 6 compounds: report Elisa ratio (beta5:LMP7) for each.
1. CC(C)C(NC(=O)OCc1ccccc1)C(=O)N[C@@H](Cc1c[nH]c2ccccc12)C(=O)N[C@@H](Cc1ccccc1)C(=O)C1(C)CO1 (stereo partly shown)
2. CC[C@@H](NC(=O)OCc1ccccc1)C(=O)N[C@@H](Cc1c[nH]c2ccccc12)C(=O)N[C@@H](Cc1ccccc1)C(=O)C1(C)CO1 (stereo partly shown) [drawing 84]
3. CC(C)C[C@H](NC(=O)[C@H](Cc1ccccc1)NC(=O)C(C)NC(=O)OCc1ccccc1)C(=O)C1(C)CO1 (stereo partly shown)
4. CC1(C(=O)[C@H](Cc2ccccc2)NC(=O)[C@H](Cc2ccccc2)NC(=O)[C@H](CCC(N)=O)NC(=O)OCc2ccccc2)CO1 (stereo partly shown)
5. COc1ccc(C[C@H](NC(=O)C(C)NC(=O)OCc2ccccc2)C(=O)N[C@@H](Cc2ccc(O)cc2)C(=O)C2(C)CO2)cc1 (stereo partly shown) [drawing 65]
6. CC(NC(=O)OCc1ccccc1)C(=O)N1Cc2ccccc2C[C@@H]1C(=O)N[C@@H](Cc1ccccc1)C(=O)C1(C)CO1 (stereo partly shown)

1. >5.0
2. >5.0
3. <1.0
4. >5.0
5. >5.0
6. <0.5

Batch of 3 compounds: report Elisa ratio (beta5:LMP7) for each.
1. CC1(C(=O)[C@H](Cc2ccccc2)NC(=O)[C@H](Cc2ccccc2)NC(=O)[C@@H](Cc2ccccc2)NC(=O)OCc2ccccc2)CO1 (stereo partly shown)
2. CC(C)C(NC(=O)OCc1ccccc1)C(=O)N[C@@H](Cc1ccccc1)C(=O)N[C@@H](Cc1ccccc1)C(=O)C1(C)CO1 (stereo partly shown)
3. CC(C)CC(NC(=O)OCc1ccccc1)C(=O)N[C@@H](CC(C)C)C(=O)N[C@@H](Cc1ccccc1)C(=O)C1(C)CO1 (stereo partly shown)

1: >3.0; 2: >2.0; 3: <0.5

State, in one line, measured Elisa ratio (beta5:LMP7) of CC(C)CC(NC(=O)OCc1ccccc1)C(=O)N[C@@H](CC(C)C)C(=O)N[C@@H](CC(C)C)C(=O)C1(C)CO1 (stereo partly shown)
<0.5

Values compiled from patent US8609654B1.
